Just for reference, paper PMC7668563 is where these values come from.

Assign biomolecular quenching rate constant kq to each entry below.
Target: UniProt:P02787
Assay: Fluorescence quenching of apo-hTf
Type: binding
Details: 310 K, kq=Ksv/τ0
Give the quantity in M⁻¹ s⁻¹, number only.

Task: Look up biomolecular quenching rate constant kq of C1CCCC1.C1CCCC1.[Cl][Nb][Cl] and report it.
Result: 3.056e+12

Task: Provide biomolecular quenching rate constant kq value for the following compound: [Cl-].[Cl-].[V+4].c1cc[cH-]c1.c1cc[cH-]c1
Result: 4.26e+12

Task: Retrieve biomolecular quenching rate constant kq measured for [Cl-].[Cl-].[Hf+4].c1cc[cH-]c1.c1cc[cH-]c1 and print it.
Result: 1.36e+11

Task: Please indicate biomolecular quenching rate constant kq recorded for [Cl][Zr+2][Cl].c1cc[cH-]c1.c1cc[cH-]c1
Result: 1.79e+11

Task: Tell us which biomolecular quenching rate constant kq value is on record for [Cl-].[Cl-].[Mo+4].c1cc[cH-]c1.c1cc[cH-]c1
Result: 1.81e+11

Task: Indicate the recorded biomolecular quenching rate constant kq value for this compound: N.N.[Cl][Pt][Cl] [(NH3)2Pt(II)Cl2, cis-diamminedichloroplatinum (II), reference compound]
Result: 9.8e+10

Task: For the compound C1CCCC1.C1CCCC1.[Cl][W][Cl] , give its reported biomolecular quenching rate constant kq.
Result: 1.89e+11

Task: Tell us which biomolecular quenching rate constant kq value is on record for [Cl-].[Cl-].[Ti+4].c1cc[cH-]c1.c1cc[cH-]c1 [Cp2TiCl2, titanocene dichloride]
Result: 1.76e+11

---

Target: apo-human transferrin (apo-hTf) (Homo sapiens)
Test: Far-UV circular dichroism titration of apo-hTf, secondary structure content
Conditions: compound concentration 0.8 (M)
measured endpoint: other secondary structure content of apo-hTf (%)
Expressed in %, but write only the number.

Task: Provide only the value of recorded other secondary structure content of apo-hTf for C1CCCC1.C1CCCC1.[Cl][W][Cl] [Cp2WCl2]
Result: 18.4

Task: Give me measured other secondary structure content of apo-hTf, please, for this compound: N.N.[Cl][Pt][Cl] [(NH3)2Pt(II)Cl2, cis-diamminedichloroplatinum (II), reference compound]
Result: 19.2

Task: Given C1CCCC1.C1CCCC1.[Cl][Nb][Cl] [Cp2NbCl2] , respond with its other secondary structure content of apo-hTf.
Result: 19.4

Task: Supply measured other secondary structure content of apo-hTf of [Cl-].[Cl-].[V+4].c1cc[cH-]c1.c1cc[cH-]c1 [Cp2VCl2] in your reply.
Result: 20.1

Task: Read off the recorded other secondary structure content of apo-hTf for [Cl-].[Cl-].[Hf+4].c1cc[cH-]c1.c1cc[cH-]c1 [Cp2HfCl2]
Result: 19.1

---

Target: apo-human transferrin (apo-hTf) (Homo sapiens)
Assay: Fluorescence quenching of apo-hTf
Format: binding
Conditions: 303 K, kq=Ksv/τ0
measured endpoint: biomolecular quenching rate constant kq (M⁻¹ s⁻¹)
All answers are understood in M⁻¹ s⁻¹, so give the number only.

Task: Specify biomolecular quenching rate constant kq for [Cl-].[Cl-].[V+4].c1cc[cH-]c1.c1cc[cH-]c1 and stop.
Result: 4.085e+12

Task: For the molecule C1CCCC1.C1CCCC1.[Cl][W][Cl] , give its reported biomolecular quenching rate constant kq.
Result: 1.76e+11

Task: Specify measured biomolecular quenching rate constant kq for [Cl-].[Cl-].[Hf+4].c1cc[cH-]c1.c1cc[cH-]c1 .
Result: 1.57e+11

Task: Kindly indicate its recorded biomolecular quenching rate constant kq. Item: [Cl-].[Cl-].[Ti+4].c1cc[cH-]c1.c1cc[cH-]c1 [Cp2TiCl2, titanocene dichloride]
Result: 1.68e+11

Task: Consider the molecule C1CCCC1.C1CCCC1.[Cl][Nb][Cl] . State its measured biomolecular quenching rate constant kq.
Result: 2.804e+12

---

Biological target: apo-human transferrin (apo-hTf) (Homo sapiens, UniProt P02787)
Sequence (P02787 20-698): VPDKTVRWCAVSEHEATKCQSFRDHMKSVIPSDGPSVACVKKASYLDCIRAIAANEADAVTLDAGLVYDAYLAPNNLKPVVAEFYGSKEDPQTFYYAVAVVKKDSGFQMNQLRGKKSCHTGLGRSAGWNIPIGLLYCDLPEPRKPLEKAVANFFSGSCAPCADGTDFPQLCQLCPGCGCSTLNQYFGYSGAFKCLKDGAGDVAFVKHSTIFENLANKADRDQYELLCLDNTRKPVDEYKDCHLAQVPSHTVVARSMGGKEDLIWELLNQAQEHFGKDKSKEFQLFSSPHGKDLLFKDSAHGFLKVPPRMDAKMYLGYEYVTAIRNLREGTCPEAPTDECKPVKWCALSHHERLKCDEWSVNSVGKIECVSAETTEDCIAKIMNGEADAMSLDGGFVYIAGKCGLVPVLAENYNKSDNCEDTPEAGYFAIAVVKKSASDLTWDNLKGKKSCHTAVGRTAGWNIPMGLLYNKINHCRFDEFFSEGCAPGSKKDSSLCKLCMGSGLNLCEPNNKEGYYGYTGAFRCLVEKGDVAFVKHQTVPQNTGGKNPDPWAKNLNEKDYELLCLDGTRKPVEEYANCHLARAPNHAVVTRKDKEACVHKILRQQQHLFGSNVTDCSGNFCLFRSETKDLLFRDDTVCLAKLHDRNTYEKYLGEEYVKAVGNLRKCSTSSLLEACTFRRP
Assay: Fluorescence quenching of apo-hTf
Assay type: binding
Settings: 317 K, pH 7.4
Could you please report measured number of binding sites n for the items listed next?
Lab note: write the figure by itself, no unit.

Task: Hello, please tell me recorded number of binding sites n for this one: C1CCCC1.C1CCCC1.[Cl][Nb][Cl] [Cp2NbCl2]
Result: 1.29

Task: Tell me its number of binding sites n given N.N.[Cl][Pt][Cl] [(NH3)2Pt(II)Cl2, cis-diamminedichloroplatinum (II), reference compound] as the entry.
Result: 1.07

Task: Fill in reported number of binding sites n for this entry: C1CCCC1.C1CCCC1.[Cl][W][Cl] [Cp2WCl2]
Result: 1.04

Task: Identify number of binding sites n associated with the molecule [Cl-].[Cl-].[Mo+4].c1cc[cH-]c1.c1cc[cH-]c1 [Cp2MoCl2]
Result: 1.16

Task: Note number of binding sites n for the molecule shown: [Cl-].[Cl-].[Hf+4].c1cc[cH-]c1.c1cc[cH-]c1 [Cp2HfCl2]
Result: 1.19

Task: Provide number of binding sites n value for the following molecule: [Cl-].[Cl-].[Ti+4].c1cc[cH-]c1.c1cc[cH-]c1 [Cp2TiCl2, titanocene dichloride]
Result: 1.05

Task: Respond only with number of binding sites n recorded for [Cl-].[Cl-].[V+4].c1cc[cH-]c1.c1cc[cH-]c1 [Cp2VCl2]
Result: 1.11

Task: State its number of binding sites n for this molecule: [Cl][Zr+2][Cl].c1cc[cH-]c1.c1cc[cH-]c1 [Cp2ZrCl2]
Result: 1

---

Molecular target: apo-human transferrin (apo-hTf) (Homo sapiens)
Experiment: Far-UV circular dichroism titration of apo-hTf, secondary structure content
Settings: compound concentration 2.4 (M)
Kindly supply the reported α-helix content of apo-hTf values for the records listed here.
# number only, unit % dropped from output

Task: Answer with reported α-helix content of apo-hTf of N.N.[Cl][Pt][Cl] [(NH3)2Pt(II)Cl2, cis-diamminedichloroplatinum (II), reference compound]
Result: 28

Task: Answer with the recorded α-helix content of apo-hTf for the compound listed here: [Cl-].[Cl-].[V+4].c1cc[cH-]c1.c1cc[cH-]c1
Result: 25.1

Task: Supply α-helix content of apo-hTf value. Item: [Cl-].[Cl-].[Mo+4].c1cc[cH-]c1.c1cc[cH-]c1
Result: 25.8

Task: Look up and state reported α-helix content of apo-hTf for [Cl-].[Cl-].[Hf+4].c1cc[cH-]c1.c1cc[cH-]c1
Result: 28.7

Task: Respond only with α-helix content of apo-hTf recorded for C1CCCC1.C1CCCC1.[Cl][Nb][Cl]
Result: 25.4

---

Biological target: apo-human transferrin (apo-hTf) (Homo sapiens)
Experiment: Far-UV circular dichroism titration of apo-hTf, secondary structure content
Details: compound concentration 1.6 (M)
measured endpoint: β-sheet content of apo-hTf (%)
Write the answer as a number in %, unit excluded.

Task: Please supply the value of reported β-sheet content of apo-hTf for the item C1CCCC1.C1CCCC1.[Cl][W][Cl] [Cp2WCl2]
Result: 18.5

Task: Give reported β-sheet content of apo-hTf value for [Cl][Zr+2][Cl].c1cc[cH-]c1.c1cc[cH-]c1 [Cp2ZrCl2]
Result: 18.4

Task: Give the reported value of β-sheet content of apo-hTf for this record: [Cl-].[Cl-].[Ti+4].c1cc[cH-]c1.c1cc[cH-]c1 [Cp2TiCl2, titanocene dichloride]
Result: 18.4

Task: Assign β-sheet content of apo-hTf to the following record: [Cl-].[Cl-].[V+4].c1cc[cH-]c1.c1cc[cH-]c1 [Cp2VCl2]
Result: 18.5

Task: Give reported β-sheet content of apo-hTf value for [Cl-].[Cl-].[Mo+4].c1cc[cH-]c1.c1cc[cH-]c1 [Cp2MoCl2]
Result: 18.6

Task: Look up β-sheet content of apo-hTf of [Cl-].[Cl-].[Hf+4].c1cc[cH-]c1.c1cc[cH-]c1 [Cp2HfCl2] and report it.
Result: 17.8

Task: Complete the entry with β-sheet content of apo-hTf for C1CCCC1.C1CCCC1.[Cl][Nb][Cl] [Cp2NbCl2]
Result: 18.9

Task: Give recorded β-sheet content of apo-hTf. N.N.[Cl][Pt][Cl] [(NH3)2Pt(II)Cl2, cis-diamminedichloroplatinum (II), reference compound]
Result: 18.4

---

Please provide measured other secondary structure content of apo-hTf for the entries that follow.
Target: apo-human transferrin (apo-hTf) (Homo sapiens, UniProt P02787)
Test: Far-UV circular dichroism titration of apo-hTf, secondary structure content
Conditions: compound concentration 2.4 (M)
Kindly provide the numeric value in % only, without the unit symbol.

Task: Identify measured other secondary structure content of apo-hTf associated with C1CCCC1.C1CCCC1.[Cl][W][Cl]
Result: 19.4

Task: Query other secondary structure content of apo-hTf for [Cl-].[Cl-].[V+4].c1cc[cH-]c1.c1cc[cH-]c1
Result: 21.1

Task: Name the recorded other secondary structure content of apo-hTf of the item [Cl-].[Cl-].[Ti+4].c1cc[cH-]c1.c1cc[cH-]c1 [Cp2TiCl2, titanocene dichloride] in your answer.
Result: 19

Task: Hello, please tell me recorded other secondary structure content of apo-hTf for this one: C1CCCC1.C1CCCC1.[Cl][Nb][Cl]
Result: 20.4

Task: // fetch other secondary structure content of apo-hTf given entry [Cl-].[Cl-].[Mo+4].c1cc[cH-]c1.c1cc[cH-]c1
Result: 20.2
